- TARGET: human TLR8 (Homo sapiens, UniProt Q9NR97)
- Sequence (Q9NR97 27-1041): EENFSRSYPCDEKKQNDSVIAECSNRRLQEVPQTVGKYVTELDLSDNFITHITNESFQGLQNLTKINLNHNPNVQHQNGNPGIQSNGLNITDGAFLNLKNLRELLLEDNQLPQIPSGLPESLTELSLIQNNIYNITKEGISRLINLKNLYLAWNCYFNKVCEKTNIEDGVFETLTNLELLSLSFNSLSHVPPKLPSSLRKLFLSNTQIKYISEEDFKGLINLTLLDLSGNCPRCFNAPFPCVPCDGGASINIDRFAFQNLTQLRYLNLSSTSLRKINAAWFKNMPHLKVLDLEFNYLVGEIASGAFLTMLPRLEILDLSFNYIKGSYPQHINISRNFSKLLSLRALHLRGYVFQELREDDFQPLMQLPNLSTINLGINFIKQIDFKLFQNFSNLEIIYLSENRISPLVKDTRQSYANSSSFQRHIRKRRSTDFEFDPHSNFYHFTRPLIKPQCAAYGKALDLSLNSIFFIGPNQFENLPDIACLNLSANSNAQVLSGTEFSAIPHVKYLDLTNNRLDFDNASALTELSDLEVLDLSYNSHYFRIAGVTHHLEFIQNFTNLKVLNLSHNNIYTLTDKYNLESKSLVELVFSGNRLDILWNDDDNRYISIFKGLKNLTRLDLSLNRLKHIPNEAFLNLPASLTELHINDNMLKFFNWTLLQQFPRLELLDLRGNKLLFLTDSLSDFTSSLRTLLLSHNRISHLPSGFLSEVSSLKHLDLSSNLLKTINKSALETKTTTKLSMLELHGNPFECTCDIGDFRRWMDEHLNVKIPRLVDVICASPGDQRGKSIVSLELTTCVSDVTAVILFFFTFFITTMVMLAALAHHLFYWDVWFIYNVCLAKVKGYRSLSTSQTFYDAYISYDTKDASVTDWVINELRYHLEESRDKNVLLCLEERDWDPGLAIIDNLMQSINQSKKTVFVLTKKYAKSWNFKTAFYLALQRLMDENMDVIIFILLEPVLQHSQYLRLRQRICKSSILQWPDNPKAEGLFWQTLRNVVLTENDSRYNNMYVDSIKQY
- METHOD_SUMMARY: TLR8 inhibition reporter assay (HEK-Blue SEAP reporter, R848 stimulation)
- CONDITION_INFO: HEK-Blue cells overexpressing human TLR8, SEAP reporter, R848 15.9 μM, 22 hour incubation
Below, each entry is listed alongside its reported log10 of IC50.
Lab note - IC50 converted to log10 from values in nM.

Record excerpt, results attached:
[[record]]
compound = "CC(C)c1c(-c2cc(-c3cccc(C#N)c3)c(=O)n(C)c2)[nH]c2ccc(C3CCNCC3)cc12 [Example 56]"
target = "human TLR8 (Homo sapiens, UniProt Q9NR97)"
observation_type = "log10 of IC50"
readout_value = 1.69

[[record]]
compound = "Cc1c(-c2[nH]c3ccc(C4CCN(CC(C)C)CC4)cc3c2C(C)C)cn(C)c(=O)c1Cl [Example 106]"
target = "human TLR8 (Homo sapiens, UniProt Q9NR97)"
observation_type = "log10 of IC50"
readout_value = 0.74

[[record]]
compound = "Cc1c(-c2[nH]c3ccc(C4CCNCC4)cc3c2C(C)C)cn(C)c(=O)c1N [Example 19]"
target = "human TLR8 (Homo sapiens, UniProt Q9NR97)"
observation_type = "log10 of IC50"
readout_value = 1.60


Query: For Cc1cc(-c2[nH]c3ccc(C4CCN(CC(=O)N(C)C)CC4)cc3c2C(C)C)nn(C)c1=O [Example 116] , what is its reported log10 of IC50?
Response: 1.38

Query: What do we get for CNC(=O)CN1CCC(c2ccc3[nH]c(-c4cc(C)c(=O)n(CCOC)c4)c(C(C)C)c3c2)CC1 [Example 160] ?
Response: 1.16

Query: What do we get for Cc1cc(-c2[nH]c3ccc(C4CCN(CC(C)(C)O)CC4)cc3c2C(C)C)nn(C)c1=O [Example 311] ?
Response: 0.59

Query: What do we get for CCCNC(=O)c1cc(-c2[nH]c3ccc(C4CCNCC4)cc3c2C(C)C)cn(C)c1=O [Example 64] ?
Response: 3.03

Query: What do we get for Cc1cc(-c2[nH]c3ccc(C4CCN(C(=O)[C@@H]5C[C@@H](O)CN5C)CC4)cc3c2C(C)C)cn(C)c1=O [Example 289] ?
Response: 1.09

Query: What do we get for Cc1c(-c2[nH]c3ccc(C4CCN(CC(=O)N(C)C)CC4)cc3c2C(C)C)cn(C)c(=O)c1Cl [Example 152] ?
Response: 0.66

Query: What do we get for Cc1c(-c2[nH]c3ccc(C4CCN(CC5COC5)CC4)cc3c2C(C)C)cn(C)c(=O)c1Cl [Example 92] ?
Response: 0.45

====

- TARGET: human TLR7 (Homo sapiens, UniProt Q9NYK1)
- Sequence (Q9NYK1 27-1049): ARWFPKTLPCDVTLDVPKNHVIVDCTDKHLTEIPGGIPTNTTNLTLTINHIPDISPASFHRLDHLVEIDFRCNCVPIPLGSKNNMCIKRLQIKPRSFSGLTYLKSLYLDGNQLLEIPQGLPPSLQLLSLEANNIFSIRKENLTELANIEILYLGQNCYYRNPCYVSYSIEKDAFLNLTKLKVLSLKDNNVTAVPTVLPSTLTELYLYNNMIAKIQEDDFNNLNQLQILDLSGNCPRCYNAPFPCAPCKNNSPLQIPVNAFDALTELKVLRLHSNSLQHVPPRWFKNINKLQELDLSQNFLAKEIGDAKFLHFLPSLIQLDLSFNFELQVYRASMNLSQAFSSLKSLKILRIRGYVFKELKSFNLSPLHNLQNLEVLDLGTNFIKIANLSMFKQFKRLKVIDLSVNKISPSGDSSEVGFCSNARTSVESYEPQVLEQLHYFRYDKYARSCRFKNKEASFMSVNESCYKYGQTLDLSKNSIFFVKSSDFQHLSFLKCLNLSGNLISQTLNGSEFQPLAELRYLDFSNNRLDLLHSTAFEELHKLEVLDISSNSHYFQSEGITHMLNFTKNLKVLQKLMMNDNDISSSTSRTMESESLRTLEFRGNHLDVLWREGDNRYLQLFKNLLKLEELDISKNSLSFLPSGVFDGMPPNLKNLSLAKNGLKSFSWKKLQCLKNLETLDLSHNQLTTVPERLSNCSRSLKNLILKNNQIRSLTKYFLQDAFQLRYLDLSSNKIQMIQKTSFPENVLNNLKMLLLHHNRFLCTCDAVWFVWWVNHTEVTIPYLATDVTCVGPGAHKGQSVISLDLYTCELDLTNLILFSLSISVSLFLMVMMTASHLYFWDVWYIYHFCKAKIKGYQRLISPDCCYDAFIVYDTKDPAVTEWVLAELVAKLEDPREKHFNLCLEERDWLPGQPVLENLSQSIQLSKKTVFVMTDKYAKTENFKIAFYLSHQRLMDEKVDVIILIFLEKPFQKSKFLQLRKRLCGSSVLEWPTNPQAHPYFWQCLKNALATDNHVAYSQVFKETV
- METHOD_SUMMARY: TLR7 inhibition reporter assay (HEK-Blue SEAP reporter, gardiquimod stimulation)
- CONDITION_INFO: HEK-Blue cells overexpressing human TLR7, SEAP reporter, gardiquimod 7.5 μM, 22 hour incubation
- Description: TLR7/8/9 Inhibition Reporter Assays HEK-Blue™-cells (Invivogen) overexpressing human TLR7, TLR8 or TLR9 receptors were used for screening inhibitors of these receptors using an inducible SEAP (secreted embryonic alkaline phosphatase) reporter gene under the control of the IFN-β minimal promoter fused to five NF-κB and AP-1-binding sites. […]
OBSERVATION_TYPE: pIC50
Recall that pIC50 is obtained by taking minus log10 of the concentration measured in molar.

Record excerpt, results attached:
[[record]]
molecule = "CC(C)c1c(-c2cc(-c3ccccc3)c(=O)n(C)c2)[nH]c2ccc(C3CCNCC3)cc12"
observation_type = "pIC50"
readout_value = 7.94

[[record]]
molecule = "Cc1c(-c2[nH]c3ccc(C4CCN(CC(O)CO)CC4)cc3c2C(C)C)cn(C)c(=O)c1Cl (stereo not shown)"
observation_type = "pIC50"
readout_value = 8.21

[[record]]
molecule = "CCc1cc(-c2[nH]c3ccc(C4CCNCC4)cc3c2C(C)C)cn(C)c1=O"
observation_type = "pIC50"
readout_value = 8.37


Query: For COCc1cc(-c2[nH]c3ccc(C4CCN(CC(=O)N(C)C)CC4)cc3c2C(C)C)cn(C)c1=O , what is its reported pIC50?
Response: 7.11

Query: What do we get for CC(C)c1c(-c2cc(C#N)c(=O)n(C)c2)[nH]c2ccc(C3CCNCC3)cc12 ?
Response: 7.50

Query: What do we get for Cc1cc(-c2[nH]c3ccc(C4CCN(CC(C)(C)O)CC4)cc3c2C(C)C)nn(C)c1=O ?
Response: 7.75

Query: What do we get for Cc1cc(-c2[nH]c3ccc(C4CCN(C(=O)CN(C)C)CC4)cc3c2C(C)C)cn(C)c1=O ?
Response: 8.28

Query: What do we get for COCCn1cc(-c2[nH]c3ccc(C4CCN(CC(=O)N(C)C)CC4)cc3c2C(C)C)cc(C)c1=O ?
Response: 7.99
